# System: primary human T-cells
# ASSAY_PROCEDURE: Proliferation assay after 5 days (CellTiter-Glo, CD3 stimulation; PBS counter screen)
# Format: cell-based
# RUN_CONDITIONS: Homo sapiens, T-cell, 120 h, primary human T-cells, CD3 stimulation, CellTiter-Glo after 5 days; EC50 of fitted sigmoidal curve; read-out: Tcell Proliferation CD3 EC50
pEC50: −log10 of the molar value.

# MOLECULE, TARGET_OR_SYSTEM, CENSORING_QUALIFIER, pEC50
data = [
    ("N[C@H]1CS(=O)(=O)c2cc(F)c(-c3nnc(NC4CCC4)o3)cc2N(Cc2ccc(Cl)cc2)C1=O", "primary human T-cells", "=", 6.23),
    ("CC(C)(C)c1nnc(-c2cc3c(cc2F)S(=O)(=O)C[C@H](N)C(=O)N3Cc2ccc(F)cc2)o1", "primary human T-cells", "=", 6.59),
    ("COC(=O)N1CC2CC(c3nnc(-c4cc5c(cc4F)S(=O)(=O)C[C@H](N)C(=O)N5Cc4ccc(Cl)cc4)o3)(C2)C1", "primary human T-cells", "=", 7.62),
    ("N[C@H]1CSc2cc(F)c(-n3cc(Cc4ccc(Cl)cc4)nn3)cc2N(Cc2ccc(Cl)cc2)C1=O", "primary human T-cells", "<", 4.70),
    ("CCCC(=O)N[C@H]1CS(=O)(=O)c2cc(F)c(-c3nnc(C(C)(C)C)o3)cc2N(Cc2ccc(Cl)cc2)C1=O", "primary human T-cells", "=", 6.37),
    ("Cc1nc(F)ccc1-c1nc(-c2cc3c(cc2F)S(=O)(=O)C[C@H](N)C(=O)N3Cc2ccc(Cl)cc2)no1", "primary human T-cells", "=", 7.09),
    ("CC(C)(CN1CCC(F)(F)CC1)c1nnc(-c2cc3c(cc2F)S(=O)(=O)C[C@H](N)C(=O)N3Cc2ccc(Cl)cc2)o1", "primary human T-cells", "=", 6.86),
    ("N[C@H]1CS(=O)(=O)c2cc(F)c(-c3noc(C4(N)COC4)n3)cc2N(Cc2ccc(OC(F)(F)F)cc2)C1=O", "primary human T-cells", "=", 5.91),
    ("Cc1cccc(F)c1-c1nnc(-c2cc3c(cc2F)S(=O)(=O)C[C@H](N)C(=O)N3Cc2ccc(Cl)cc2)o1", "primary human T-cells", "=", 7.30),
    ("N[C@H]1CS(=O)(=O)c2cc(F)c(-c3noc(C4(CO)CCCO4)n3)cc2N(Cc2ccc(Oc3ccccc3)cc2)C1=O (stereo partly drawn)", "primary human T-cells", "=", 6.21),
    ("COC(=O)N1CC(Nc2nnc(-c3cc4c(cc3F)S(=O)(=O)C[C@H](N)C(=O)N4Cc3ccc(Cl)cc3)o2)CC(F)(F)C1 (stereo partly drawn)", "primary human T-cells", "=", 5.22),
    ("N[C@H]1CS(=O)(=O)c2cc(F)c(-c3nnc(C4CCOCC4)o3)cc2N(Cc2ccc(Cl)cc2)C1=O", "primary human T-cells", "=", 6.14),
    ("N[C@H]1CS(=O)(=O)c2cc(F)c(-c3nnc(-c4ccccc4)o3)cc2N(Cc2ccc(Cl)cc2)C1=O", "primary human T-cells", "=", 6.28),
    ("N[C@H]1CS(=O)(=O)c2ccc(-c3nnc(N4CCOC5(CC5)C4)o3)cc2N(Cc2ccc(Cl)cc2)C1=O", "primary human T-cells", "=", 6.34),
    ("CC(N)(c1nc(-c2cc3c(cc2F)S(=O)(=O)C[C@H](N)C(=O)N3Cc2ccc(OC(F)(F)F)cc2)no1)C(F)(F)F (stereo partly drawn)", "primary human T-cells", "=", 7.23),
    ("CC(C)(C#N)Nc1nnc(-c2cc3c(cc2F)S(=O)(=O)C[C@H](N)C(=O)N3Cc2ccc(Cl)cc2)o1", "primary human T-cells", "=", 5.57),
    ("CC(F)(F)CNc1nnc(-c2ccc3c(c2)N(Cc2ccc(Cl)cc2)C(=O)[C@@H](N)CS3(=O)=O)o1", "primary human T-cells", "=", 5.55),
    ("N[C@H]1CS(=O)(=O)c2cc(F)c(-c3noc(NC4CCC4)n3)cc2N(Cc2ccc(Cl)cc2)C1=O", "primary human T-cells", "=", 6.98),
    ("CC(C)(C)c1cc(-c2cc3c(cc2F)S(=O)(=O)C[C@H](N)C(=O)N3Cc2ccc(Cl)cc2)on1", "primary human T-cells", "=", 5.96),
    ("CC1(C)CN(c2nnc(-c3cc4c(cc3F)S(=O)(=O)C[C@H](N)C(=O)N4Cc3ccc(Cl)cc3)o2)CCO1", "primary human T-cells", "=", 6.39),
    ("CN1CCC(c2nnc(-c3cc4c(cc3F)S(=O)(=O)C[C@H](N)C(=O)N4Cc3ccc(Cl)cc3)o2)C1 (stereo partly drawn)", "primary human T-cells", "=", 5.21),
    ("N[C@H]1CS(=O)(=O)c2cc(F)c(-c3nnc(CC(F)(F)F)o3)cc2N(Cc2ccc(OC(F)(F)F)cc2)C1=O", "primary human T-cells", "=", 6.38),
    ("CCCc1noc(-c2cc3c(cc2F)S(=O)(=O)C[C@H](N)C(=O)N3Cc2ccc(Cl)cc2)n1", "primary human T-cells", "=", 5.88),
    ("N[C@H]1CS(=O)(=O)c2cc(F)c(-c3nnc(CCC(F)(F)F)o3)cc2N(Cc2ccc(Cl)cc2)C1=O", "primary human T-cells", "=", 6.95),
    ("CC(C)Oc1ccc(CN2C(=O)[C@@H](N)CS(=O)(=O)c3cc(F)c(-c4noc(N5CCOC6(CC6)C5)n4)cc32)cn1", "primary human T-cells", "=", 5.67),
    ("COC(=O)N1CC2CC(c3nnc(-c4ccc5c(c4)N(Cc4ccc(OC(F)(F)F)cc4)C(=O)[C@@H](N)CS5(=O)=O)o3)(C2)C1", "primary human T-cells", "=", 5.74),
    ("COC(=O)N1CC(c2nnc(-c3cc4c(cc3F)S(=O)(=O)C[C@H](N)C(=O)N4Cc3ccc(Cl)cc3)o2)C2(CC2)C1 (stereo partly drawn)", "primary human T-cells", "=", 6.10),
]
